System: HCV subgenomic replicon
TEST DESCRIPTION: Anti-HCV activity in HCV subgenomic replicon system (Huh7 cells, firefly luciferase)
TEST CONTEXT: read-out: Anti-HCV activity in HCV replicon system IC50; Huh7 cells, subgenomic HCV replicon carrying firefly luciferase gene
pIC50: −log10 of the molar value.
Catalogue of molecules with associated pIC50
MEASURED QUANTITY: pIC50

INSERT INTO assay_data (molecule, number) VALUES
  ('COc1cccc2c1C(=O)c1c(O)c3c(c(O)c1C2=O)CC(O)(C(=O)CO)CC3OC1CC(N(C)C)C(O)C(C)O1 (centres unmarked) [BNE06, 3′-N,N-Dimethyl-4′-epidoxorubicin]', 7.74),
  ('COc1cccc2c1C(=O)c1c(O)c3c(c(O)c1C2=O)CC(O)(C(=O)COC(C)=O)CC3OC1CC(NC(C)=O)C(OC(C)=O)C(C)O1 (centres unmarked)', 6.30);
